Provenance of the data: patent US8049012B2

- TARGET ENTITY: reuptake of serotonine (5-HT) in synaptosomes (Rattus norvegicus, UniProt P31652)
- Construct: in synaptosomes as described in WO 97/16451
- Sequence (P31652 whole entry): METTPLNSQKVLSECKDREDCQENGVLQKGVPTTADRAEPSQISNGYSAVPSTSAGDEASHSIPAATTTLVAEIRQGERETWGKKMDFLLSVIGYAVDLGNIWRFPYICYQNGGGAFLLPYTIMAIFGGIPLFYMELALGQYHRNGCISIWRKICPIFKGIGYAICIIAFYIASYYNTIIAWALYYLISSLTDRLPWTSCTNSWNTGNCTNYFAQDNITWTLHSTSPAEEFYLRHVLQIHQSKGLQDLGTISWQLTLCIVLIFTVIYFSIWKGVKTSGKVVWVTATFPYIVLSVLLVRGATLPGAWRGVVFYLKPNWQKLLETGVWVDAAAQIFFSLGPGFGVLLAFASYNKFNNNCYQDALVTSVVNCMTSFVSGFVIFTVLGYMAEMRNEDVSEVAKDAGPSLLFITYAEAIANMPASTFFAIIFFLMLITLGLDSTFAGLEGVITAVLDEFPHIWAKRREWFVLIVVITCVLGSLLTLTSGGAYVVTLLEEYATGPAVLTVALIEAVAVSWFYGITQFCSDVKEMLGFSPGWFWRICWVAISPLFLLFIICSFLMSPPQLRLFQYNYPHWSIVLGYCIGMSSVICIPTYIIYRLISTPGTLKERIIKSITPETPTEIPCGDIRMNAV
- ASSAY NOTES: Inhibition of 3H-5-HT reuptake in synaptosomes
- PARTICULARS: as described in WO 97/16451, read-out: 5-HT-uptake IC50
ENDPOINT LABEL: IC50 (nM)
Just the number please, in nM, no unit attached.

# COMPOUND, IC50 / nM
records = [
    ("Clc1ccc(NC2CCC3(CCNCC3)CC2)cc1Cl [2nd last compound of method A]", 2.3),
]

Kindly consider the entry below.
Q. Query: IC50; subject: O=c1ccc2ccc(OC3CCC4(CCNCC4)CC3)cc2o1 [3rd compound of method A]
A. 2

----------
// IC50 lookup, one value per entry
- TARGET ENTITY: reuptake of dopamine (DA) in synaptosomes (Rattus norvegicus)
- Construct: in synaptosomes as described in WO 97/16451
- Sequence (P23977 whole entry): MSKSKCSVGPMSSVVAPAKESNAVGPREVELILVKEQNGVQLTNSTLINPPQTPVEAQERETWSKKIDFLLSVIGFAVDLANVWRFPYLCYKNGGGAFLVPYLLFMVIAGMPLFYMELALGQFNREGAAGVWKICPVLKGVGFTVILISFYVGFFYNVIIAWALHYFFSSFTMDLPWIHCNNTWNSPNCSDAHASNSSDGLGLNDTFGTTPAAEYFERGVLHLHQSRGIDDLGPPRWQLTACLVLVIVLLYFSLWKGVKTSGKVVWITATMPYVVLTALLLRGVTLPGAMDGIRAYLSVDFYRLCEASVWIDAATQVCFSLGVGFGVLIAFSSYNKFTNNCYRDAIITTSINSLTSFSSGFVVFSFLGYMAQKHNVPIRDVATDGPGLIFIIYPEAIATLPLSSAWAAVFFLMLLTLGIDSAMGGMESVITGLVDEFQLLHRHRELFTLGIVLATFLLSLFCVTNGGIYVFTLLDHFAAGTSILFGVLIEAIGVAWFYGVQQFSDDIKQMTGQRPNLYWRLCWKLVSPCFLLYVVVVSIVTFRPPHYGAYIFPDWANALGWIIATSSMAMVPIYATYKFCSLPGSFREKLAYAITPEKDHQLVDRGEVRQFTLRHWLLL
- ASSAY NOTES: Inhibition of 3H-DA reuptake in synaptosomes
- PARTICULARS: as described in WO 97/16451, read-out: DA-uptake IC50
Remember to put the unit after the number in your answer.

# MOLECULE SMILES, ENDPOINT LABEL, EXPERIMENTAL VALUE
records = [
    ("Clc1ccc(NC2CCC3(CCNCC3)CC2)cc1Cl", "IC50", "490 nM"),
]

Kindly consider the entry below.
Q. Query: IC50; subject: O=c1ccc2ccc(OC3CCC4(CCNCC4)CC3)cc2o1
A. 1200 nM
